Measured Average survival times (Days) of individual entries
test system: Pseudomonas aeruginosa ATCC 27853; assay: Injectable formulations on mice infected with peritonitis; type: in vivo, ICR mice; conditions: 1 mg/kg via tail vein, twice a day for 3 days, observed for 14 d, n = 10
Marks after values point to notes of the source that are not given here. Non-standard residues stand in square brackets, D forms with d. Residues, ends and D or L forms follow the SMILES beside them. dPhe(4-Cl) = N[C@H](Cc1ccc(Cl)cc1)C(=O)O; d2Nal = N[C@H](Cc1ccc2ccccc2c1)C(=O)O

**Query** Observed Average survival times (Days) on Pseudomonas aeruginosa ATCC 27853 for CC(=O)N[C@H](CCCNC(=N)N)C(=O)N[C@H](CCCCN)C(=O)N[C@H](CC(C)C)C(=O)N[C@H](CC(C)C)C(=O)N[C@H](Cc1ccc(Cl)cc1)C(=O)N[C@H](CCCCN)C(=O)N[C@H](CC(C)C)C(=O)N[C@H](CCCCN)C(=O)N[C@H](Cc1ccc(Cl)cc1)C(=O)N[C@H](CCCCN)C(=O)N[C@H](CCCNC(=N)N)C(N)=O [LV-7] (Ac-[dR][dK][dL][dL][dPhe(4-Cl)][dK][dL][dK][dPhe(4-Cl)][dK][dR]-NH2) , please.
**Result** 9.8*** Days

**Query** Try the compound CC(=O)N[C@H](CCCCN)C(=O)N[C@H](CCCCN)C(=O)N[C@H](CC(C)C)C(=O)N[C@H](CC(C)C)C(=O)N[C@H](Cc1ccc2ccccc2c1)C(=O)N[C@H](CCCNC(=N)N)C(=O)N[C@H](CC(C)C)C(=O)N[C@H](CCCCN)C(=O)N[C@H](Cc1ccc2ccccc2c1)C(=O)N[C@H](CCCNC(=N)N)C(=O)N[C@H](CCCCN)C(N)=O [LV-19] (Ac-[dK][dK][dL][dL][d2Nal][dR][dL][dK][d2Nal][dR][dK]-NH2)
**Result** 11.1**** Days

**Query** Try the compound CC(=O)N[C@H](CCCNC(=N)N)C(=O)N[C@H](CCCNC(=N)N)C(=O)N[C@H](CC(C)C)C(=O)N[C@H](CC(C)C)C(=O)N[C@H](Cc1ccc2ccccc2c1)C(=O)N[C@H](CCCCN)C(=O)N[C@H](CC(C)C)C(=O)N[C@H](CCCCN)C(=O)N[C@H](Cc1ccc2ccccc2c1)C(=O)N[C@H](CCCCN)C(=O)N[C@H](CCCNC(=N)N)C(N)=O [LV-24] (Ac-[dR][dR][dL][dL][d2Nal][dK][dL][dK][d2Nal][dK][dR]-NH2)
**Result** 9.4*** Days

---

Measured MHC (minimum hemolytic concentration, lowest concentration causing 10% hemolysis) of individual entries
test system: rabbit red blood cells; type: cell-based; details: red cells of rabbit, 1 h
Non-standard residues stand in square brackets, D forms with d. Residues, ends and D or L forms follow the SMILES beside them. d2Nal = N[C@H](Cc1ccc2ccccc2c1)C(=O)O

Guide cases for MHC (minimum hemolytic concentration, lowest concentration causing 10% hemolysis), answers given:
1) CC(=O)N[C@H](CCCNC(=N)N)C(=O)N[C@H](CCCNC(=N)N)C(=O)N[C@H](CC(C)C)C(=O)N[C@H](CC(C)C)C(=O)N[C@H](Cc1ccc2ccccc2c1)C(=O)N[C@H](CCCNC(=N)N)C(=O)N[C@H](CC(C)C)C(=O)N[C@H](CCCCN)C(=O)N[C@H](Cc1ccc2ccccc2c1)C(=O)N[C@H](CCCNC(=N)N)C(=O)N[C@H](CCCCN)C(N)=O [LV-21] (Ac-[dR][dR][dL][dL][d2Nal][dR][dL][dK][d2Nal][dR][dK]-NH2); >1000 µg/mL
2) CC(=O)N[C@H](CCCCN)C(=O)N[C@H](CCCNC(=N)N)C(=O)N[C@H](CC(C)C)C(=O)N[C@H](CC(C)C)C(=O)N[C@H](Cc1ccc2ccccc2c1)C(=O)N[C@H](CCCCN)C(=O)N[C@H](CC(C)C)C(=O)N[C@H](CCCCN)C(=O)N[C@H](Cc1ccc2ccccc2c1)C(=O)N[C@H](CCCCN)C(=O)N[C@H](CCCNC(=N)N)C(N)=O [LV-23] (Ac-[dK][dR][dL][dL][d2Nal][dK][dL][dK][d2Nal][dK][dR]-NH2); >1000 µg/mL

**Query** Observed MHC (minimum hemolytic concentration, lowest concentration causing 10% hemolysis) on rabbit red blood cells for CC(=O)N[C@H](CCCNC(=N)N)C(=O)N[C@H](CCCCN)C(=O)N[C@H](CC(C)C)C(=O)N[C@H](CC(C)C)C(=O)N[C@H](Cc1ccccc1)C(=O)N[C@H](CCCNC(=N)N)C(=O)N[C@H](CC(C)C)C(=O)N[C@H](CCCCN)C(=O)N[C@H](Cc1ccccc1)C(=O)N[C@H](CCCNC(=N)N)C(=O)N[C@H](CCCCN)C(N)=O [LV-2] (Ac-[dR][dK][dL][dL][dF][dR][dL][dK][dF][dR][dK]-NH2) , please.
**Result** >1000 µg/mL
